Reported IC50 (cell viability) is given for each of the following molecules.
- Tested on: SHI-1
- measurementSetup: 72 h

Here is how some molecules turned out for IC50 (cell viability).
[[record]]
molecule = "C=C1NC(=O)c2cc(CN(C)c3ccc(C(=O)N[C@@H](CCC(=O)O)C(=O)O)s3)ccc2N1"
targetundertest = "SHI-1"
experimentalvalue = "0.562 µM"

[[record]]
molecule = "CNC(=C[N+](=O)[O-])NCCSCc1ccc(CN(C)C)o1"
targetundertest = "SHI-1"
experimentalvalue = "> 10 µM"

[[record]]
molecule = "c1ccc2nc(-c3nnc4sc(-c5cnccn5)nn34)ccc2c1"
targetundertest = "SHI-1"
experimentalvalue = "> 10 µM"


// fetch SHI-1 IC50 (cell viability) for CN(C)C(=O)n1nnnc1Cc1ccc(-c2ccccc2)cc1
3.74 µM

// fetch SHI-1 IC50 (cell viability) for Fc1ccc(CNc2ncnc3ccc(F)cc23)cc1
> 10 µM

// fetch SHI-1 IC50 (cell viability) for N[C@@H](CCC(=O)N[C@@H](CS)C(=O)NCC(=O)O)C(=O)O
> 10 µM

// fetch SHI-1 IC50 (cell viability) for Cc1nnc(-c2ccc(N3CCC(Oc4ccccc4C(F)(F)F)CC3)nn2)s1
> 10 µM

// fetch SHI-1 IC50 (cell viability) for COc1cc(/C=C/c2ccc(OC)cc2OC)cc(OC)c1
> 10 µM

// fetch SHI-1 IC50 (cell viability) for O=C(C(=O)c1ccc(Br)cc1)c1ccc(Br)cc1
> 10 µM

// fetch SHI-1 IC50 (cell viability) for CC(=O)N1CCN(c2ccc(OC[C@@H]3CO[C@@](Cn4ccnc4)(c4ccc(Cl)cc4Cl)O3)cc2)CC1 (racemic)
> 10 µM

// fetch SHI-1 IC50 (cell viability) for C[C@H]1O[C@H](O[C@H]2[C@H](O)[C@@H](O)[C@@H](O[C@H]3[C@H](O)[C@@H](O)C(O)O[C@@H]3CO)O[C@@H]2CO)[C@H](O)[C@@H](O)[C@@H]1N[C@H]1C=C(CO)[C@@H](O)[C@H](O)[C@H]1O (mixture of isomers)
> 10 µM
